System: Plasmodium falciparum
Assay: Antiplasmodial activity against chloroquine resistant Plasmodium falciparum K14 assessed as inhibition of parasite growth incubated for 48 hrs by [3H]-hypoxanthine incorporation based microbeta scintillation counting method
Type: functional, organism-based
Provide the recorded pIC50 for the entries that follow.
One number for each entry, as −log10 of the molar value.

smiles-str	pIC50
O=C(Nc1ccc([C@@H]2[C@H](Oc3ccc(Cl)cc3Cl)C(=O)N2c2ccc(Cl)cc2)cc1)N1CCOCC1	4.59

Here's the next entry for you.
### Prompt What measured pIC50 is associated with "COc1ccc(N2C(=O)[C@@H](Oc3ccc(Cl)cc3Cl)[C@H]2c2ccc(NC(=O)N3CCOCC3)cc2)cc1" on Plasmodium falciparum?
### Response 4.68
